These measurements were taken from patent US12371454B2.

# SYSTEM_UNDER_TEST: Kras and SOS1 (biotin-tagged human Kras loaded with GDP, His-tagged human SOS1) (Homo sapiens, UniProt P01116, G12D)
# Construct: made in house; host or cells: E. coli (stated for Kras only)
# Sequence (P01116 1-188 isoform P01116-2 G12D): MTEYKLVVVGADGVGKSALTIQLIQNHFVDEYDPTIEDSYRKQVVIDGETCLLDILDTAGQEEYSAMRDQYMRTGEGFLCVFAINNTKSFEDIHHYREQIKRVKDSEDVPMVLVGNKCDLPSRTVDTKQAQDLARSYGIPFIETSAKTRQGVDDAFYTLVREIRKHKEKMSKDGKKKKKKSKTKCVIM
# TEST_METHOD_NOTES: Protein-protein interaction inhibition between Kras and SOS1 (KrasGl2D-SOS PPI) using AlphaScreen
# Type: binding
# CONDITION_CONTEXT: AlphaScreen; biotin-tagged human Kras loaded with GDP, His-tagged human SOS1; read-out: KRAS G12D-SOS PPI IC50
# Protocol: Protein-Protein Interaction Inhibition Between Kras and SOS1 (KrasGl2D-SOS PPI) Using AlphaScreen Protein-protein interaction inhibition (PPI) between Kras and SOS1 was measured by energy transfer from nickel-conjugated donor beads to streptavidin-conjugated acceptor beads using biotin-tagged human Kras expressed in E. coli and loaded with GDP after purification and His-tagged human SOS1 enzyme. […]
Positions of bridges follow the written chain, without caps; N, C: chain ends. Non-standard residues stand in square brackets, D forms with d. Residues, ends and D or L forms follow the SMILES beside them. *: point of attachment. hPhe(3-Cl-4-CF3) = N[C@@H](CCc1ccc(C(F)(F)F)c(Cl)c1)C(=O)O; NMeGly(cPent) = CN[C@H](C(=O)O)C1CCCC1; NMeAhp(2) = CCCCC[C@H](NC)C(=O)O; NMeD = CN[C@@H](CC(=O)O)C(=O)O; Morpholide = C1CN(*)CCO1; Ac5c = NC1(C(=O)O)CCCC1; Aze = O=C(O)[C@@H]1CCN1; Sar = CNCC(=O)O

{"columns": ["COMPOUND", "IC50"],
 "data": [
  ["CCCCC[C@H]1C(=O)N[C@@H]([C@@H](C)CC)C(=O)N[C@@H](C)C(=O)N2CC[C@H]2C(=O)N(C)[C@@H](C2CCCC2)C(=O)N(C)CC(=O)N[C@@H](CCc2ccc(C(F)(F)F)c(Cl)c2)C(=O)N2CCC[C@H]2C(=O)NC2(CCCC2)C(=O)N(C)[C@@H](C2CCCC2)C(=O)N(C)[C@H](C(=O)N2CCOCC2)CC(=O)N1C [Compound 11] ([NMeAhp(2)]IA[Aze][NMeGly(cPent)][Sar][hPhe(3-Cl-4-CF3)]P[Ac5c][NMeGly(cPent)][NMeD]-Morpholide; lactam N-11)", "1.5 nM"]
]}

###

# SYSTEM_UNDER_TEST: Kras and SOS1 (biotin-tagged human Kras loaded with GDP, His-tagged human SOS1) (Homo sapiens, UniProt P01116, G12D)
# Construct: made in house; host or cells: E. coli (stated for Kras only)
# TEST_METHOD_NOTES: Protein-protein interaction inhibition between Kras and SOS1 (KrasGl2D-SOS PPI) using AlphaScreen
# Format: binding
# CONDITION_CONTEXT: AlphaScreen; biotin-tagged human Kras loaded with GDP, His-tagged human SOS1; read-out: KRAS G12D-SOS PPI IC50
Positions of bridges follow the written chain, without caps; N, C: chain ends. Non-standard residues stand in square brackets, D forms with d. Residues, ends and D or L forms follow the SMILES beside them. *: point of attachment. hPhe(3-Cl-4-CF3) = N[C@@H](CCc1ccc(C(F)(F)F)c(Cl)c1)C(=O)O; NMeDab(N,N-(CH2CF2CH2)) = CN[C@@H](CCN1CC(F)(F)C1)C(=O)O; hPhe(3-F,4-CF3) = N[C@@H](CCc1ccc(C(F)(F)F)c(F)c1)C(=O)O; Thiomorpholino(1,1-dioxo) = O=S1(=O)CCN(*)CC1; NMeNle(6-CHF2) = CN[C@@H](CCCCC(F)F)C(=O)O; Abu(4,4,4-F3) = N[C@@H](CC(F)(F)F)C(=O)O; NMeGly(cPent) = CN[C@H](C(=O)O)C1CCCC1; NMeCha = CN[C@@H](CC1CCCCC1)C(=O)O; NMeChg = CN[C@H](C(=O)O)C1CCCCC1; αMeF = C[C@](N)(Cc1ccccc1)C(=O)O; NMeD = CN[C@@H](CC(=O)O)C(=O)O; NMeL = CN[C@@H](CC(C)C)C(=O)O; Chg = N[C@H](C(=O)O)C1CCCCC1; NMeV = CN[C@H](C(=O)O)C(C)C; NMeA = CN[C@@H](C)C(=O)O; Piperidide = C1CCN(*)CC1; Pyrrolidide = C1CCN(*)C1; Ac5c = NC1(C(=O)O)CCCC1; Aze = O=C(O)[C@@H]1CCN1; Sar = CNCC(=O)O
Entries and their measured IC50 follow.

{"columns": ["COMPOUND", "IC50"],
 "data": [
  ["CC[C@H](C)[C@@H]1NC(=O)[C@H](CC(C)C)N(C)C(=O)C[C@@H](C(=O)N(C)C)N(C)C(=O)[C@H](C2CCCC2)N(C)C(=O)[C@H](CC(F)(F)F)NC(=O)[C@H](CCN2CC(F)(F)C2)N(C)C(=O)[C@H](CCc2ccc(C(F)(F)F)c(Cl)c2)NC(=O)CN(C)C(=O)[C@H](CC2CCCCC2)N(C)C(=O)[C@@H]2CCN2C(=O)[C@H](C)N(C)C1=O [Compound 104] ([NMeL]I[NMeA][Aze][NMeCha][Sar][hPhe(3-Cl-4-CF3)][NMeDab(N,N-(CH2CF2CH2))][Abu(4,4,4-F3)][NMeGly(cPent)][NMeD]-NMe2; lactam N-11)", "28 nM"],
  ["CC[C@H](C)[C@@H]1NC(=O)[C@H](CC(C)C)N(C)C(=O)C[C@@H](C(=O)N2CCS(=O)(=O)CC2)NC(=O)[C@H](C(C)C)N(C)C(=O)C2(CCCC2)NC(=O)[C@@H]2CCCN2C(=O)[C@H](CCc2ccc(C(F)(F)F)c(Cl)c2)NC(=O)CN(C)C(=O)[C@H](CC2CCCCC2)N(C)C(=O)[C@@H]2CCN2C(=O)[C@H](C)N(C)C1=O [Compound 1349] ([NMeL]I[NMeA][Aze][NMeCha][Sar][hPhe(3-Cl-4-CF3)]P[Ac5c][NMeV]D-{Thiomorpholino(1,1-dioxo)}; lactam N-11)", "150 nM"],
  ["COC[C@@H]1NC(=O)[C@H](CC(C)C)N(C)C(=O)C[C@@H](C(=O)N2CCCCC2)N(C)C(=O)[C@H](C2CCCCC2)N(C)C(=O)C2(CCCC2)NC(=O)[C@@H]2CCCN2C(=O)[C@H](CCc2ccc(C(F)(F)F)c(Cl)c2)NC(=O)CN(C)C(=O)[C@H](CC2CCCCC2)N(C)C(=O)CN(C)C(=O)CN(C)C1=O [Compound 148] ([NMeL]S(Me)[Sar][Sar][NMeCha][Sar][hPhe(3-Cl-4-CF3)]P[Ac5c][NMeChg][NMeD]-Piperidide; lactam N-11)", "1.8 nM"],
  ["CC(C)C[C@H]1C(=O)N[C@@H](C2CCCCC2)C(=O)N(C)CC(=O)N(C)CC(=O)N(C)[C@@H](CCCCC(F)F)C(=O)N(C)CC(=O)N[C@@H](CCc2ccc(C(F)(F)F)c(F)c2)C(=O)N(C)[C@@H](CC(C)C)C(=O)N[C@@](C)(Cc2ccccc2)C(=O)N(C)[C@@H](CC(C)C)C(=O)N[C@H](C(=O)N2CCCC2)CC(=O)N1C [Compound 1450] ([NMeL][Chg][Sar][Sar][NMeNle(6-CHF2)][Sar][hPhe(3-F,4-CF3)][NMeL][αMeF][NMeL]D-Pyrrolidide; lactam N-11)", "220 nM"]
]}
